Biological target: Serine/threonine-protein kinase 33 (Homo sapiens)
Sequence (Q9BYT3 whole entry): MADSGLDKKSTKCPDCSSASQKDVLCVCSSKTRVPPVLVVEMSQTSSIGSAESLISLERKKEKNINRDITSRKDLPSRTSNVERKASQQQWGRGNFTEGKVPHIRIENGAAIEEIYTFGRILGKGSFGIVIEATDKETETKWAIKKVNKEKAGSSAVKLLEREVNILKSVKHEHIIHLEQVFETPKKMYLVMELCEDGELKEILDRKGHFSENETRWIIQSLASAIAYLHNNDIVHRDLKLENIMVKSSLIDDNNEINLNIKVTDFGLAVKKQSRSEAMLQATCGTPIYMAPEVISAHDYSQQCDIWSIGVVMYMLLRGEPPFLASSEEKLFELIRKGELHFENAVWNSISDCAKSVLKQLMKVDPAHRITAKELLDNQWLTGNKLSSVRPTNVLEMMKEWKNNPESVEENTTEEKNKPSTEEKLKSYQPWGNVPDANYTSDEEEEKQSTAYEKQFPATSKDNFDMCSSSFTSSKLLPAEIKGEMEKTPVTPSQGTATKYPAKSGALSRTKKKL
Assay: Inhibition of N-terminal 6His-tagged full length human recombinant STK33 using myelin basic protein as substrate incubated for 15 mins before initiation of kinase reaction measured after 1 hr by ADP-glo assay
property-name: IC50 (nM)

> print(dat)
                          chemical.structure  cmp  reported
 1  Cc1cc2nc(-c3ccccc3NC(=O)c3cccs3)c(=O)[nH]c2cc1C    =      1600
 2  CC(C)c1ccc(NC(=O)c2cccs2)c(-c2nc3ccccc3[nH]c2=O)c1    =        14
 3  COc1ccc(C(=O)Nc2ccccc2-c2nc3ccccc3[nH]c2=O)cc1    =       980
 4  O=C(Nc1ccccc1-c1nc2ccccc2[nH]c1=O)c1ccccn1    =        76
 5  O=C(Nc1ccccc1-c1nc2ccccc2[nH]c1=O)c1ccc(F)cc1    =       150
 6  O=C(Nc1ccccc1-c1nc2ccccc2[nH]c1=O)c1cccnc1    =       580
 7  O=C(Nc1ccccc1-c1nc2ccccc2[nH]c1=O)c1ccccc1    =       170
 8  O=C(Nc1ccccc1-c1nc2ccccc2[nH]c1=O)c1ccc(Cl)cc1    =       300
 9  O=C(Nc1cc(Cl)ccc1-c1nc2ccccc2[nH]c1=O)c1cccs1    =       270
10  O=C(Nc1ccc(OC(F)(F)F)cc1-c1nc2ccccc2[nH]c1=O)c1cccs1    =       110
11  O=C(Nc1ccc(F)cc1-c1nc2ccccc2[nH]c1=O)c1cccs1    =       410
12  O=C(Nc1ccccc1-c1nc2cc(F)c(F)cc2[nH]c1=O)c1cccs1    =      1600
13       O=c1[nH]c2ccccc2nc1-c1ccccc1NCC1CC1    >     10000
14  O=C(Nc1ccccc1-c1nc2cc(Cl)c(Cl)cc2[nH]c1=O)c1cccs1    =      4000
15  O=c1[nH]c2ccccc2nc1-c1ccccc1NS(=O)(=O)c1cccs1    >     10000
16  O=C(Nc1cc(F)ccc1-c1nc2ccccc2[nH]c1=O)c1cccs1    =        78

----------
Experiment: Metabolic stability in human plasma at 5 uM after 5 hrs by UPLC-MS analysis
Format: ADME, cell-free
Conditions: read-out: Stability
property-name: remaining at 5 h, 5 µM (%)

> print(dat)
                         chemical.structure  reported
1  CC(C)c1ccc(NC(=O)c2cccs2)c(-c2nc3ccccc3[nH]c2=O)c1      80.3

----------
Target: Serine/threonine-protein kinase 33 (Homo sapiens)
Experiment: Inhibition of N-terminal 6His-tagged full length human recombinant STK33 using myelin basic protein as substrate incubated for 15 mins before initiation of kinase reaction measured after 1 hr by ADP-glo assay
pIC50: −log10 of the molar value.
The reader will find reported pIC50 values listed item by item below.
property-name: pIC50

> print(dat)
                          chemical.structure  property.name  cmp  reported
 1  O=C(Nc1ccccc1-c1nc2ccccc2[nH]c1=O)c1nccs1          pIC50    =      6.28
 2  O=c1[nH]c2ccccc2nc1-c1ccccc1NS(=O)(=O)c1ccccc1          pIC50    =      5.14
 3     O=c1[nH]c2ccccc2nc1-c1ccccc1NCc1cccs1          pIC50    <      5.00
 4  O=C(Nc1ccccc1-c1nc2ccccc2[nH]c1=O)C1CCCCC1          pIC50    <      5.00
 5  COc1ccc(NC(=O)c2cccs2)c(-c2nc3ccccc3[nH]c2=O)c1          pIC50    =      6.60
 6     O=C(Nc1ccccc1-c1nc2ccccc2nc1O)c1cccs1          pIC50    =      6.55
 7    O=c1[nH]c2ccccc2nc1-c1ccccc1NCc1ccccc1          pIC50    <      5.00
 8    O=c1[nH]c2ccccc2nc1-c1ccccc1NCc1ccccn1          pIC50    =      5.80
 9  O=C(Nc1ccccc1-c1nc2ccccc2[nH]c1=O)c1ccc(Cl)s1          pIC50    =      6.42
10  O=c1[nH]c2ccccc2nc1-c1ccccc1NCc1ccc(F)cc1          pIC50    <      5.00
11  O=C(Nc1ccc(Cl)cc1-c1nc2ccccc2[nH]c1=O)c1cccs1          pIC50    =      6.80

----------
Experiment: Metabolic stability in mouse plasma at 5 uM after 5 hrs by UPLC-MS analysis
Type: ADME, cell-free
Details: read-out: Stability
property-name: remaining at 5 h, 5 µM (%)

> print(dat)
                         chemical.structure           property.name  output.unit  reported
1  CC(C)c1ccc(NC(=O)c2cccs2)c(-c2nc3ccccc3[nH]c2=O)c1  remaining at 5 h, 5 µM            %        10
